# assayed_system: GSK3β (h) (Homo sapiens)
# Sequence (P49841 whole entry): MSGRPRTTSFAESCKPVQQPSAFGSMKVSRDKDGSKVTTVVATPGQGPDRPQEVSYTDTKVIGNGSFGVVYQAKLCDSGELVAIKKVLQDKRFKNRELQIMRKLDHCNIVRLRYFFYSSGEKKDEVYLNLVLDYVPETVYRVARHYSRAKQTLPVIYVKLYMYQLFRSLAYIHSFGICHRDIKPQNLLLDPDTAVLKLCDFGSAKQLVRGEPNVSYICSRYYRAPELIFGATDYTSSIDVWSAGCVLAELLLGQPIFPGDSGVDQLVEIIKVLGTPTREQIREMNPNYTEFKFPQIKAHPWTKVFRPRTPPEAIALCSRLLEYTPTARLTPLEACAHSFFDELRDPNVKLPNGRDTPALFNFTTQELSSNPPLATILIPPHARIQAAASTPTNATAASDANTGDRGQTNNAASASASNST
# measurement_notes: GSK-3β human kinase inhibition, SPA
# Assay type: biochemical
# particulars: read-out: GSK3b pIC50 (converted)
Record form. Attribute: IC50. Fill in for each entry.
// return numeric value only (unit: µM, not printed)

Lookup result for `O=C1NCc2cccc(c2)-c2ccnc(n2)Nc2ccc(C(=O)N3CCOCC3)c(c2)CN2CCC[C@@H]12` ; measured IC50: 0.0676

// IC50 value for `CN1CCCNC(=O)CN2CCN(CC2)Cc2cc(Br)cc(c2)Nc2nccc(n2)-c2ccc(cc2)C1` : 2.95

In plain terms, `O=C1CN2CCN(CC2)Cc2cc(ccc2N2CCOCC2)Nc2nccc(n2)-c2cccc(c2)OCCN1` has a documented IC50 of 0.24

# IC50 (molecule: `C[C@@H]1NCc2ccc(cc2)Nc2nccc(n2)-c2cccc(c2)CNC1=O` ) is 1.29

IC50 reading for `C[C@H]1NCc2cc(ccc2N2CCOCC2)Nc2nccc(n2)-c2ccc(cc2)OCCCNC1=O` : 0.0692

Kindly note the recorded IC50 for `O=C1NCCCOc2cccc(c2)-c2ccnc(n2)Nc2ccc(N3CCOCC3)c(c2)CN[C@H]1CO` , which is 0.589

The value of IC50 measured for the molecule `CN1CCCNC(=O)[C@@H]2CCCN2Cc2cc(Br)cc(c2)Nc2nccc(n2)-c2ccc(cc2)C1` turned out to be 6.31

Summary for this molecule, `COc1ccc2cc1CN(C)CCNC(=O)[C@@H]1CCCN1Cc1cc(Br)cc(c1)Nc1nccc-2n1` : IC50 is 4.79
